test system: Es-2; assay: Primary qHTS to identify gynecologic anti-cancer compounds using libraries of approved drugs and bioactive compounds (AID 1345084); conditions: Gynecologic cancer cell panel viability, ATPlite luminescence, 48 h; series mostly up to 57.5 µM; also: % is scaled to controls: 0 for no effect and ±100 for the full control effect; nearly all actives have a fitted effect of over 55% in size
Records with an inconclusive call do not appear. The source made the active and inactive calls. Calls follow the shape of the dose curve; as a rule, active = well fitted cell-killing curve with a large enough effect; inconclusive = small, poorly fitted or top-dose-only effect, or effect the other way; inactive = flat fitted curve, though single readings scatter.
Measured endpoint: activity change, negative = cytotoxicity

Some entries whose results are on file:
Compound	activity change, negative = cytotoxicity
C=CC(C)(O)CC/C=C(\C)C(=O)OC1CC2(C(=O)O)CCC3(C)C(=CCC4C5(C)CCC(OC6OC(COC7OCC(O)C(O)C7O)C(O)C(OC7OCC(O)C(O)C7O)C6OC6OC(CO)C(O)C(O)C6OC6OCC(O)C(O)C6O)C(C)(C)C5CCC43C)C2CC1(C)C (stereo unspecified)	6.29% [at 6.55 µM] (inactive)
CC(C)C(C#N)O[C@@H]1O[C@H](CO[C@@H]2OC[C@](O)(CO)[C@H]2O)[C@@H](O)[C@H](O)[C@H]1O (stereo partly specified)	inactive
CC(CCC1(O)OC2CC3C4CCC5CC(O[C@@H]6O[C@H](CO)[C@@H](O)[C@H](O)[C@H]6O[C@@H]6OC[C@@H](O)[C@H](O)[C@H]6O)C(O)CC5(C)C4CCC3(C)C2C1C)CO[C@@H]1O[C@H](CO)[C@@H](O)[C@H](O)[C@H]1O (stereo partly specified)	-0.82% [at 11.6 µM] (inactive)
O=C(/C=C/c1ccc(O)cc1)OCC1=C[C@@H](O)[C@@H]2C=CO[C@@H](O[C@@H]3O[C@H](CO)[C@@H](O)[C@H](O)[C@H]3O)[C@H]12	inactive
COc1cc(C(O)C(CO)Oc2ccc(CCCO[C@@H]3O[C@@H](C)[C@H](O)[C@@H](O)[C@H]3O)cc2OC)ccc1O (stereo partly specified)	inactive

Query compound follows.
GET /value?item= CCC(=O)N[C@@H]1Cc2ccccc2[C@H](c2ccccc2)C1 &field=activity change, negative = cytotoxicity returns inactive

---

target: Voltage-gated inwardly rectifying potassium channel KCNH2 (Homo sapiens); assay: qHTS Assay for Small Molecule Inhibitors of the Human hERG Channel Activity (AID 588834); details: U2OS BacMam hERG, FluxOR thallium flux fluorescence; series mostly up to 46.1 µM;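 also: lower thallium flux fluorescence means stronger hERG block; nearly all actives have a fitted effect of over 50% in size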; also: potency is read from the fitted curve at half-maximal effect
Inconclusive results are not listed. Activity calls are given as the source filed them. Calls follow the shape of the dose curve; as a rule, active = well fitted inhibition curve with a large enough effect; inconclusive = small, poorly fitted or top-dose-only effect; inactive = flat fitted curve, though single readings scatter. Where a SMILES comes first, the peptide text is derived from it. Bridges are numbered along the chain shown (N, C = ends). [ ]: non-standard residue; d: D form. The star is where a group is joined. Dab(CH2SO3H) = N[C@@H](CCNCS(=O)(=O)O)C(=O)O; X3 = CC[C@@H](C)CCCCC(=O)*; Dab = NCC[C@H](N)C(=O)O
Measured endpoint: Potency

Some entries whose results are on file:
Compound	Recorded measurement
CCCCCCCC(=O)O	inactive
C[C@]12C=CC(=O)N[C@@H]1CC[C@@H]1[C@@H]2CC[C@]2(C)[C@@H](C(=O)Nc3cc(C(F)(F)F)ccc3C(F)(F)F)CC[C@@H]12	2.51 µM (active)
CC[C@@H](C)CCCCC(=O)N[C@@H](CCNCS(=O)(=O)O)C(=O)N[C@H](C(=O)N[C@@H](CCNCS(=O)(=O)O)C(=O)N[C@H]1CCNC(=O)[C@H]([C@@H](C)O)NC(=O)[C@H](CCNCS(=O)(=O)O)NC(=O)[C@H](CCNCS(=O)(=O)O)NC(=O)[C@H](CC(C)C)NC(=O)[C@@H](CC(C)C)NC(=O)[C@H](CCNCS(=O)(=O)O)NC1=O)[C@@H](C)O (X3-[Dab(CH2SO3H)]T[Dab(CH2SO3H)][Dab][Dab(CH2SO3H)][dL]L[Dab(CH2SO3H)][Dab(CH2SO3H)]T; lactam 4-C)	inactive
CCCCC/C=C\C/C=C\CCCCCCCC(=O)O	inactive
CC(Cc1ccc(O)c(O)c1)C(C)Cc1ccc(O)c(O)c1 (stereo unspecified)	inactive

# value of Potency, Voltage-gated inwardly rectifying potassium channel KCNH2 (Homo sapiens), item C=C[C@]1(C)C[C@@H](OC(=O)CSC(C)(C)CNC(=O)[C@H](N)C(C)C)[C@]2(C)[C@H](C)CC[C@]3(CCC(=O)[C@H]32)[C@@H](C)[C@@H]1O = 7.08 µM (active)

---

assay: Primary qHTS for inhibitors of nuclear receptor binding SET domain protein 2 (NSD2) in an RCH-ACV wild type WT cells (2C) (AID 1645877); details: RCH-ACV (leukaemia line) NSD2 WT (2C) viability, CellTiter-Glo, 72 h; series mostly up to 44.9 µM; also: nearly all actives have a fitted effect of over 70% in size; as to activity change, negative = cell killing: % is scaled to controls: 0 for no effect and ±100 for the full control effect
Inconclusive results are not listed. Calls of active or inactive are those of the source. Calls follow the shape of the dose curve; as a rule, active = well fitted inhibition curve with a large enough effect; inconclusive = small, poorly fitted or top-dose-only effect; inactive = no such curve, though single readings can be large or run the other way.
Measured endpoint: activity change, negative = cell killing

Some entries whose results are on file:
Molecule	Recorded measurement
CC1(C)CC(=O)N(CCCCN2CCN(c3ncccn3)CC2)C(=O)C1	inactive
Cn1c(=O)cc(N2CCCC(N)C2)n(Cc2ccccc2C#N)c1=O (stereo not drawn)	inactive
Cc1cc(C)c(S(=O)(=O)N(Cc2ccc(-c3cccc(S(C)(=O)=O)c3)cc2)Cc2ccc(C(F)(F)F)o2)c(C)c1	inactive
CC1CCC(=O)CC(O)C(O)CC(=O)O1 (stereo not drawn)	inactive
C=C1CC2[C@]3(C)C(=C(O)C(=O)[C@@]2(C)[C@]2(C(=O)OC)C(=O)C(C)OC(=O)[C@@]12C)C(C)(C)C(=O)CC3O (stereo partly drawn)	inactive

GET /value?item= COC(=O)CC[C@@H](C)[C@H]1CC[C@H]2[C@@H]3CC(=O)[C@H]4C[C@H](OC(C)=O)CC[C@]4(C)[C@H]3CC[C@]12C &field=activity change, negative = cell killing returns inactive

GET /value?item= C[C@@H]1CCC2C(C)(C)[C@H](O)CC[C@]2(C)[C@@]12Cc1c(O)cc3c(c1O2)CN(CCO)C3=O (stereo partly drawn) &field=activity change, negative = cell killing returns inactive

GET /value?item= N[C@@H](CC(=O)N1CCn2c(nnc2C(F)(F)F)C1)Cc1[nH]nc2c(F)c(F)ccc12 &field=activity change, negative = cell killing returns inactive

---

Tested on: HEK293
Experiment: Cytotoxic Profiling of Annotated Libraries Using Quantitative High-Throughput Screening (AID 1296008); also: nearly all actives have a fitted effect of over 60% in size
Details: Five cell lines viability, CellTiter-Glo ATP luminescence, 48-72 h
Protocol: Cell-based phenotypic screening is a commonly used approach to discover biological pathways, novel drug targets, chemical probes and high-quality hit-to-lead molecules. […] A pintool (Kalypsys) was used to transfer 23 nL of compound solution to the 1536-well assay plates. […] Plates were left at room temperature for 10 min before imaging the ATP-coupled luminescence using a ViewLux microplate imager (PerkinElmer, Waltham, MA).
Inconclusive results are not listed. Activity calls are given as the source filed them. The call rests on the fitted dose curve; in most records, active means well fitted inhibition curve with a large enough effect; inconclusive means small, poorly fitted or top-dose-only effect; inactive means flat fitted curve, though single readings scatter.
Pick from active, inactive when you respond.

Recorded results for 10 compounds are shown here.
Compound	Tgt	Label class
C[C@@H]1O[C@@H](OC[C@H]2O[C@@H](OCC3CCC4CC3C4(C)C)[C@H](O)[C@@H](O)[C@@H]2O)[C@H](O)[C@H](O)[C@H]1O (some centres not stated)	HEK293	inactive
COc1ccc(/C=C/C(=O)O[C@@H]2[C@@H](OC(C)=O)[C@@H](OC(C)=O)[C@H](O[C@H]3[C@@H]4C=CO[C@@H](O[C@@H]5O[C@H](CO)[C@@H](O)[C@H](O)[C@H]5O)[C@@H]4[C@@]4(CO)O[C@@H]34)O[C@H]2C)cc1O	HEK293	inactive
COC(=O)C[C@@H]1C(C(=O)O)=CO[C@@H](O[C@@H]2O[C@H](CO)[C@@H](O)[C@H](O)[C@H]2O)/C1=C\COC(=O)/C=C\c1ccccc1	HEK293	inactive
CC(C)[C@@H](C)/C=C/[C@@H](C)[C@H]1CC[C@H]2C3=CC=C4C[C@@H](O)CC[C@]4(C)[C@H]3CC[C@]12C	HEK293	inactive
CC1CC(O)CC(C)(C)C1(O)CCO (configuration not stated)	HEK293	inactive
CC(C)(O)C1CC=C(C(=O)OCC2OC(Oc3c(O)cc(C(=O)O)cc3O)C(O)C(O)C2O)CC1 (configuration not stated)	HEK293	inactive
CO[C@@]12CC3[C@@H]([C@@H](O)[C@@H](OC(C)=O)C4[C@](C)(COC(C)=O)CCC[C@]34C)[C@@H](C)C1=CC(=O)O2 (some centres not stated)	HEK293	inactive
CCOc1cc2ncc(C#N)c(Nc3ccc(OCc4ccccn4)c(Cl)c3)c2cc1NC(=O)/C=C/CN(C)C	HEK293	active
CC1(C)CC2C3=CCC4C5(C)CCC(OC6OC(C(=O)O)C(O)C(O)C6OC6OC(CO)C(O)C(O)C6OC6OC(CO)C(O)C(O)C6O)C(C)(CO)C5CCC4(C)C3(C)CCC2(C)C(OC2OCC(O)C(OC3OC(CO)C(O)C(O)C3O)C2O)C1O (configuration not stated)	HEK293	inactive
CC(=O)O[C@@H]1[C@H](O[C@@H]2OC[C@](O)(CO)[C@H]2O)[C@@H](O[C@@H]2O[C@@H](C)[C@H](O)[C@@H](O)[C@H]2O)[C@H](OC(=O)[C@]23CCC(C)(C)C[C@H]2C2=CCC4[C@@]5(C)C[C@H](O)[C@H](O[C@@H]6O[C@H](C(=O)O)[C@@H](O)[C@H](O)[C@H]6O)[C@@](C)(C(=O)O)C5CC[C@@]4(C)[C@]2(C)CC3)O[C@@H]1C (some centres not stated)	HEK293	inactive

input: How did this test come out for COc1cc(CC(COC2OC(CO)C(O)C(O)C2O)c2cc(/C=C/CO)cc(OC)c2O)ccc1O (configuration not stated) ?
output: inactive

input: How did this test come out for C=CC1C(O[C@@H]2O[C@H](CO)[C@@H](O)[C@H](O)[C@H]2O)OC=C(C(=O)OC)C1Cc1nccc2c1[nH]c1ccccc12 (some centres not stated) ?
output: inactive

input: How did this test come out for CC(=O)c1c(O)cc2c(c1C)C(=O)CC(O)C2 (configuration not stated) ?
output: inactive

input: How did this test come out for C[C@@H]1O[C@@H](O[C@H]2[C@H](O[C@H]3CC[C@@]4(C)C(CC[C@]5(C)C4CC=C4[C@@H]6CC(C)(C)CC[C@]6(C(=O)O)CC[C@]45C)[C@]3(C)CO)OC[C@H](O)[C@@H]2O)[C@H](O)[C@H](O[C@@H]2OC[C@@H](O)[C@H](O)[C@H]2O)[C@H]1O (some centres not stated) ?
output: inactive

input: How did this test come out for COc1ccccc1-n1c(SCC(=O)Nc2nc3ccc(C)cc3s2)nc2c(c1=O)SCC2 ?
output: inactive

input: How did this test come out for CC(/C=C/C1(O)C(C)CC(O)CC1(C)C)OC1OC(CO)C(O)C(O)C1O (configuration not stated) ?
output: inactive

Data provenance is PubChem BioAssay (NCATS).
